Molecular target: human GPC3 (Glypican-3) (human, UniProt P51654 25-580)
Sequence (P51654 25-580, form in doubt): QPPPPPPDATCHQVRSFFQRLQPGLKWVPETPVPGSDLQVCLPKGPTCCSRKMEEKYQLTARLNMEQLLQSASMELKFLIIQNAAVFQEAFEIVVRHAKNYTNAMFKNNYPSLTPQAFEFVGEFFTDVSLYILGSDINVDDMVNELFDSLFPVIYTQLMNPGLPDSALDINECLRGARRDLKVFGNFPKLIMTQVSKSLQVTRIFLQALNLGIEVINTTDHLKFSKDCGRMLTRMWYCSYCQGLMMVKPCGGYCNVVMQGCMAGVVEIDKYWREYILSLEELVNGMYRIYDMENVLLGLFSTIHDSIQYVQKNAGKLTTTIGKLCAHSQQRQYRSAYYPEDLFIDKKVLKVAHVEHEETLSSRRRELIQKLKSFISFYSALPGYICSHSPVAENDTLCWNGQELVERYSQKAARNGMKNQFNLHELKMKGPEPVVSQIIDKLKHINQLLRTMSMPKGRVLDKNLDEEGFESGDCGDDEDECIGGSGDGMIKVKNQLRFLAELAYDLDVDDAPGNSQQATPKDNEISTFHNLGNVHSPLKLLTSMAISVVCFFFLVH
Test: cell-based or functional assay
Quantity Name: Percentage reduction of GPC3 on cell surface (%), Huh7 cells, 0.5 h
# value in %; strip the unit string

Binder: Hu 52H5D3B8-8-mc-AAQ-Exatecan (ADC-3) (antibody, human IgG1, kappa, DAR 8.0, V domains shown, mc-AAQ-Exatecan on cysteine thiols freed by reduction of interchain disulfide bonds; DAR 8.0 for the whole antibody; positions not given, also called Hu 52H5D3B8-8-MC-AAQ-Exa (ADC-3)) VH: EVQLVQSGAEVKKPGASVKVSCKASGYTFTDYEMHWVRQAPGQGLEWMGAIHPGSGGTAYNQKFKGRVTMTADKSISTAYMELSRLRSDDTAVYYCTRFYSYAYWGQGTLVTVSS VL: DVVMTQTPLSLSVTPGQPASISCRSSQSLVHSNGNTYLQWYLQKPGQSPQLLIYKVSNRFSGVPDRFSGSGSGTDFTLKISRVEAEDVGVYFCSQSIHVPYTFGGGTKVEIKR
U: %
Result Number: 20

Note: attention shifts to another entry.
query: Indicate the recorded Percentage reduction of GPC3 on cell surface (%), Huh7 cells, 0.5 h value for this binder: Hu 52H5D3B8-8-mcc-AAQ-Exatecan (ADC-4) (antibody, human IgG1, kappa, DAR 8.0, V domains shown, mcc-AAQ-Exatecan on cysteine thiols freed by reduction of interchain disulfide bonds; DAR 8.0 for the whole antibody; positions not given, also called Hu 52H5D3B8-8-MCC-AAQ-Exa (ADC-4)) VH: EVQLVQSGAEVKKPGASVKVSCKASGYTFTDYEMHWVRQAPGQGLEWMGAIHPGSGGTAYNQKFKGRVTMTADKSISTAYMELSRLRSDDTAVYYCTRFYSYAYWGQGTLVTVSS VL: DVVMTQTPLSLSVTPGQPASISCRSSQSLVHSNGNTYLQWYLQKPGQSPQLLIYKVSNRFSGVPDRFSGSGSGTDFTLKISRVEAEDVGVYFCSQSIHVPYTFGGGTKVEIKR
result: 18.9
